system: Plasminogen activator inhibitor 1 (Homo sapiens, UniProt P05121)
Sequence (P05121 whole entry): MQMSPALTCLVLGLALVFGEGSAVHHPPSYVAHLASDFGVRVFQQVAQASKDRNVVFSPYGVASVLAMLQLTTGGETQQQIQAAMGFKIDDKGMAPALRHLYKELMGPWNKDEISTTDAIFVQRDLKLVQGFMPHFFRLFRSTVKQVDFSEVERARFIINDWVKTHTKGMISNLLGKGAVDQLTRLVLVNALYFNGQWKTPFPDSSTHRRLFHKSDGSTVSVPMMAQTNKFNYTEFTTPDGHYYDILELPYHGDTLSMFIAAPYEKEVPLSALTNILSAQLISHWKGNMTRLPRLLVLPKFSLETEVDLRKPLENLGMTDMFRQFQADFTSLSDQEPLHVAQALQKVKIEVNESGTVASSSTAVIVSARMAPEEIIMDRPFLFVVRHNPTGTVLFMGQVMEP
protocol_summary: Plasminogen Activator Inhibitor-1 (PAI-1) activity was determined by inhibition of Urokinase-type plasminogen activator using primary assay
Known pIC50 of a selection of compounds
// pIC50 here means minus log10 of the molar concentration (mol/L)

These solved cases illustrate the format of a correct answer.
COc1cc(C(=O)O)c2c(c1C)OC(=O)c1c(C)cc(O)c(CNc3cccc(CNC(=O)CO[C@@H]4C[C@H](C)CC[C@H]4C(C)C)c3)c1O2 5.85
COc1cccc(CNc2ccc(CNC(=O)CO[C@@H]3C[C@H](C)CC[C@H]3C(C)C)cc2)c1Oc1ccc([N+](=O)[O-])cc1C(=O)O 5.92
CC(C)[C@@H]1CC[C@@H](C)C[C@H]1OCC(=O)NCc1ccc(NCc2cc([N+](=O)[O-])ccc2Oc2ccccc2C(=O)O)cc1 6.15

Request: Return value of pIC50 for input CC(C)[C@@H]1CC[C@@H](C)C[C@H]1OCC(=O)NCc1ccc(NCc2c(F)cccc2Oc2c(O)cccc2C(=O)O)cc1 , no commentary.
Result: 6.15

Request: Quote pIC50 reported for COc1ccc(Oc2ccccc2CNc2ccc(CNC(=O)CO[C@@H]3C[C@H](C)CC[C@H]3C(C)C)cc2)c(C(=O)O)c1 please.
Result: 5.85
